Assay: Inhibition of perforin (unknown origin) assessed as reduction in perforin-mediated cell lysis in human Jurkat T cells incubated for 30 mins by 51Cr release based gamma counting method
observable: IC50 (µM)

CN1Cc2cc(-c3ccc(-c4cncc(NS(=O)(=O)c5ccc(F)cc5F)c4)s3)cnc2C1=O	4.3
O=C1c2ccc(-c3ccc(-c4cncc(NS(=O)(=O)c5ccc(F)cc5F)c4)s3)cc2CN1CCN1CCOCC1	17

====

Property: pIC50; scope: individual compounds
Assay: Inhibition of perforin (unknown origin) assessed as reduction in perforin-mediated cell lysis in human Jurkat T cells incubated for 30 mins by 51Cr release based gamma counting method
pIC50: −log10 of the molar value.
observable: pIC50

COc1ncc(-c2ccc(-c3cnc4c(c3)CN(C)C4=O)s2)cc1NS(=O)(=O)c1ccccc1C(F)(F)F	6.11
CN1Cc2cc(-c3ccc(-c4cncc(NS(=O)(=O)c5ccccc5C(F)(F)F)c4)s3)cnc2C1=O	5.86

====

Test: Inhibition of perforin (unknown origin) assessed as reduction in perforin-mediated cell lysis in human Jurkat T cells incubated for 30 mins by 51Cr release based gamma counting method
Property: IC50; scope: individual compounds
observable: IC50 (µM)

COc1ncc(-c2ccc(-c3cnc4c(c3)CN(C)C4=O)s2)cc1NS(=O)(=O)c1ccc(F)cc1F	3.34
O=C1c2ccc(-c3ccc(-c4cncc(NS(=O)(=O)c5ccc(F)cc5F)c4)s3)cc2CN1CC(O)CO (stereo not drawn)	14.2
O=C1NCc2cc(-c3ccc(-c4cncc(NS(=O)(=O)c5ccc(F)cc5F)c4)s3)cnc21	5.73
COc1ncc(-c2ccc(-c3cnc4c(c3)CN(C)C4=O)s2)cc1NS(=O)(=O)c1ccccc1[N+](=O)[O-]	2.3

====

Assay: Inhibition of perforin in human KHYG-1 cells pre-treated with compound for 20 mins assessed as reduction in KHYG-1 cells-mediated cell lysis of human K562 cells measured after 4 hrs by 51Cr release based gamma counting method
pIC50: −log10 of the molar value.
observable: pIC50

CN1Cc2cc(-c3ccc(-c4cncc(NS(=O)(=O)c5ccccc5C(F)(F)F)c4)s3)cnc2C1=O	5.48
COc1ncc(-c2ccc(-c3cnc4c(c3)CN(C)C4=O)s2)cc1NS(=O)(=O)c1ccccc1[N+](=O)[O-]	5.80
O=C1NCc2ncc(-c3ccc(-c4cncc(NS(=O)(=O)c5ccc(F)cc5F)c4)s3)cc21	5.17
CN1Cc2cc(-c3ccc(-c4cncc(NS(=O)(=O)c5cccc(C(F)(F)F)c5)c4)s3)cnc2C1=O	5.47
COc1ncc(-c2ccc(-c3cnc4c(c3)CN(C)C4=O)s2)cc1NS(=O)(=O)c1ccc(F)cc1F	5.35
COc1ncc(-c2ccc(-c3cnc4c(c3)CN(C)C4=O)s2)cc1NS(=O)(=O)c1ccccc1C(F)(F)F	5.66
CN1Cc2cc(-c3ccc(-c4cncc(NS(=O)(=O)c5ccc(F)cc5F)c4)s3)cnc2C1=O	5.12

meta.source: BindingDB's records for doi:10.1021/acs.jmedchem.9b00881
